These entries and their values trace back to patent US10450314B2.

# System tested: RORγ (Homo sapiens)
# Sequence (P51449 269-508 limits assumed): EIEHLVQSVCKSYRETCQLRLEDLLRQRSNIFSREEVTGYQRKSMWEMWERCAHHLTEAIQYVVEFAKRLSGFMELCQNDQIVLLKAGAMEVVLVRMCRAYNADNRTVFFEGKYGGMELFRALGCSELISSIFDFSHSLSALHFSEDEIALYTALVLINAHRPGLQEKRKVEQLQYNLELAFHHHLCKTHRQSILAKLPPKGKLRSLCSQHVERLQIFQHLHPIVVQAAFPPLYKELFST
# Method: RORγ Reporter Gene Assay (RGA), luciferase transactivation in transiently transfected HEK 293 cells
# Run parameters: HEK 293 cells cotransfected with pGL4.3 luc2P/GAL4UAS and pBIND Gal4DBD hRORC LBD; 20-24 h incubation
pIC50: −log10 of the molar value.
Recorded endpoint: pIC50

Below: 6 molecules and their reported pIC50.
COc1ncnc(C2CC2)c1-c1nc(C)c2nc(NCc3ccc(S(C)(=N)=O)cc3)c(=O)n([C@@H](C)C3CC3)c2n1 (stereo partly drawn) [Example 67] ... 6.96
CCS(=N)(=O)c1ccc(CNc2nc3c(C)nc(-c4c(C)ncnc4C4CC4)nc3n([C@@H](C)C3CC3)c2=O)cc1 (single isomer, unassigned) [Example 36b] ... 6.61
CCS(=O)(=O)c1cnc(CNc2nc3c(C)nc(-c4c(C)ncnc4C4CC4)nc3n([C@H](C)C(F)F)c2=O)nc1 [Example 93] ... 6.73
CC[C@@H](C)n1c(=O)c(NCc2ccc(S(=O)(=O)CC)cn2)nc2c(CF)nc(-c3c(C)ncnc3C3CC3)nc21 [Example 53] ... 6.80
CCS(=O)(=O)c1ccc(CNc2nc3c(C)nc(-c4c(OC)ncnc4C4CC4)nc3n(CC(C)C)c2=O)cn1 [Example 78] ... 6.56
CC[C@@H](C)n1c(=O)c(NCc2ccc(S(=N)(=O)CC)cc2)nc2c(C)nc(-c3c(OC)ncnc3C3CC3)nc21 (single isomer, unassigned) [Example 29b] ... 6.77

[1] CC[C@H](C)n1c(=O)c(NCc2ccc(S(C)(=N)=O)cc2)nc2c(C)nc(-c3c(C)ncnc3C3CC3)nc21 (stereo partly drawn) [Example 84]
[2] CC[C@@H](C)n1c(=O)c(NCc2ccc(S(C)(=O)=O)cn2)nc2c(C)nc(-c3c(OC)ncnc3C3CC3)nc21 [Example 2]
// task: argmin of pIC50 over [ 1 , 2 ] The response must carry the label of the picked entry.
1

[P] CC[C@H](C)n1c(=O)c(NCc2ncc(S(=O)(=O)CC)cn2)nc2c(C)nc(-c3c(C)ncnc3C3CC3)nc21 [Example 16]
[Q] Cc1ncnc(C2CC2)c1-c1nc(C)c2nc(NCc3ccc(S(C)(=O)=O)cn3)c(=O)n([C@@H](C)C3CC3)c2n1 [Example 9]
[R] COc1ncnc(C2CC2)c1-c1nc(C)c2nc(NCc3ccc(S(C)(=N)=O)cc3)c(=O)n([C@@H](C)C(F)(F)F)c2n1 (single isomer, unassigned) [Example 99b]
[S] CC[C@@H](C)n1c(=O)c(NCc2ccc(S(=O)(=O)CC)cn2)nc2c(COC(C)=O)nc(-c3c(C)ncnc3C3CC3)nc21 [Example 46]
Ordering criterion: pIC50; begin with the maximum. # the answer lists labels in the order requested
Q, P, R, S

[a] CCS(=N)(=O)c1ccc(CNc2nc3c(C)nc(-c4c(C)ncnc4C4CC4)nc3n([C@@H](C)C3CC3)c2=O)nc1 (single isomer, unassigned) [Example 42a]
[b] CC[C@@H](C)n1c(=O)c(NCc2ccc(S(=O)(=O)CC)nc2)nc2c(C)nc(-c3c(OC)ncnc3C3CC3)nc21 [Example 3]
[c] Cc1ncnc(C2CC2)c1-c1nc(C)c2nc(NCc3ccc(S(C)(=N)=O)cn3)c(=O)n([C@@H](C)C(F)(F)F)c2n1 (single isomer, unassigned) [Example 106b]
[d] Cc1ncnc(C2CC2)c1-c1nc(C)c2nc(NCc3ccc(S(C)(=O)=O)cn3)c(=O)n([C@@H](C)CF)c2n1 [Example 49]
[e] COc1ncnc(C2CC2)c1-c1nc(C)c2nc(NCc3ccc(S(C)(=N)=O)cn3)c(=O)n([C@@H](C)C(F)(F)F)c2n1 (single isomer, unassigned) [Example 105b]
Please put the entries in order of rising pIC50. # the answer lists labels in the order requested
d, c, e, a, b
(d: 5.38, c: 6.08, e: 6.29, a: 6.57, b: 7.06)

---

Measured HLM (% Qh), listed per entry.
# Method: Human liver microsome (HLM) metabolic stability assay
# Format: in vitro ADME
# Run parameters: human liver microsomes, 1 uM compound, 37° C., 60 min; % hepatic blood flow
# Description: Assessment of Metabolic Stability The 5 time point, high-throughput human liver microsome (HLM) metabolic stability assay is designed to determine in vitro compound metabolism. Compounds are incubated with HLMs at a concentration of 1 uM, at 37° C., for a total of 60 min. […] The plates are analyzed using LC/MS/MS with electron spray ionization (ESI) and the previously determined MRM transitions. […]

CC[C@H](C)n1c(=O)c(NCc2ccc(S(=O)(=O)CC)cn2)nc2c(C)nc(-c3c(C)ncnc3C3CC3)nc21 [Example 60] ... <24 % Qh
CCS(=O)(=O)c1ccc(CNc2nc3c(C)nc(-c4c(C)ncnc4C4CC4)nc3n([C@@H](C)C3CC3)c2=O)nc1 [Example 68] ... <24 % Qh
Cc1ncnc(C2CC2)c1-c1nc(C)c2nc(NCc3ccc(S(C)(=O)=O)nc3)c(=O)n([C@@H](C)C(F)(F)F)c2n1 [Example 20] ... 29 % Qh
CCS(=N)(=O)c1ccc(CNc2nc3c(C)nc(-c4c(C)ncnc4C4CC4)nc3n([C@@H](C)C3CC3)c2=O)nc1 (single isomer, unassigned) [Example 42b] ... <24 % Qh

According to the records, this compound CC[C@@H](C)n1c(=O)c(NCc2ccc(S(=O)(=O)CC)nc2)nc2c(C)nc(-c3c(OC)ncnc3C3CC3)nc21 [Example 3] displays HLM (% Qh) of <24 % Qh

According to the records, this compound CCS(=O)(=O)c1ccc(CNc2nc3c(C)nc(-c4c(OC)ncnc4C4CC4)nc3n([C@@H](C)C3CC3)c2=O)nc1 [Example 71] displays HLM (% Qh) of 35 % Qh

According to the records, this compound CC[C@@H](C)n1c(=O)c(NCc2ccc(S(C)(=O)=O)cn2)nc2c(COC(C)=O)nc(-c3c(C)ncnc3C3CC3)nc21 [Example 47] displays HLM (% Qh) of 56 % Qh

According to the records, this compound COc1ncnc(C2CC2)c1-c1nc(C)c2nc(NCc3ccc(S(N)(=O)=O)cn3)c(=O)n(CC(C)C)c2n1 [Example 70] displays HLM (% Qh) of <24 % Qh

According to the records, this compound CC[C@@H](C)n1c(=O)c(NCc2ccc(S(=O)(=O)CC)cn2)nc2c(OC)nc(-c3c(C)ncnc3C3CC3)nc21 [Example 21] displays HLM (% Qh) of <24 % Qh

According to the records, this compound CC[C@H](C)n1c(=O)c(NCc2ccc(S(=O)(=O)CC)cn2)nc2c(C)nc(-c3c(OC)ncnc3C3CC3)nc21 [Example 58] displays HLM (% Qh) of <24 % Qh

According to the records, this compound CC[C@H](C)n1c(=O)c(NCc2ccc(S(N)(=O)=O)cn2)nc2c(C)nc(-c3c(C)ncnc3C3CC3)nc21 [Example 85] displays HLM (% Qh) of <24 % Qh

According to the records, this compound CC[C@@H](C)n1c(=O)c(NCc2ccc(S(C)(=O)=O)cn2)nc2c(C)nc(-c3c(C)ncnc3C3CC3)nc21 [Example 73] displays HLM (% Qh) of <24 % Qh

According to the records, this compound CC[C@H](C)n1c(=O)c(NCc2ccc(S(C)(=O)=O)cn2)nc2c(C)nc(-c3c(C)ncnc3C3CC3)nc21 [Example 14] displays HLM (% Qh) of <24 % Qh

According to the records, this compound CC[C@H](C)n1c(=O)c(NCc2ccc(S(C)(=N)=O)cc2)nc2c(C)nc(-c3c(OC)ncnc3C3CC3)nc21 (some centres unmarked) [Example 83] displays HLM (% Qh) of 32 % Qh

---

# Method: Human liver microsome (HLM) metabolic stability assay
# Format: in vitro ADME
# Run parameters: human liver microsomes, 1 uM compound, 37° C., 60 min; % hepatic blood flow
Recorded endpoint: HLM (% Qh)

Below: 2 compounds and their reported HLM (% Qh).
CC[C@@H](C)n1c(=O)c(NCc2ccc(S(=O)(=O)CC)cn2)nc2c(COC(C)=O)nc(-c3c(C)ncnc3C3CC3)nc21 ... 66
CC[C@@H](C)n1c(=O)c(NCc2ccc(S(C)(=O)=O)cn2)nc2c(CF)nc(-c3c(C)ncnc3C3CC3)nc21 ... 41

[I] CC[C@@H](C)n1c(=O)c(NCC2CCN(S(C)(=O)=O)CC2)nc2c(C)nc(-c3c(C)ncnc3C3CC3)nc21
[II] COc1ncnc(C2CC2)c1-c1nc(C)c2nc(NCc3ccc(S(N)(=O)=O)cn3)c(=O)n([C@@H](C)C3CC3)c2n1
// task: argmin of HLM (% Qh) over [ I , II ] The response must carry the label of the picked entry.
II

[P] Cc1ncnc(C2CC2)c1-c1nc(C)c2nc(NCc3ccc(S(C)(=O)=O)cn3)c(=O)n([C@@H](C)C(F)(F)F)c2n1
[Q] Cc1ncnc(C2CC2)c1-c1nc(C)c2nc(NCc3ccc(S(C)(=N)=O)cn3)c(=O)n([C@@H](C)C(F)(F)F)c2n1 (single isomer, unassigned) [Example 106b]
When their HLM (% Qh) values are compared, which is larger, P or Q ? The response must carry the label of the picked entry.
P
(P: 55 % Qh, Q: 28 % Qh)

[P] COc1ncnc(C2CC2)c1-c1nc(C)c2nc(NCc3ccc(S(C)(=N)=O)cn3)c(=O)n([C@@H](C)C(F)(F)F)c2n1 (single isomer, unassigned) [Example 105b]
[Q] COc1ncnc(C2CC2)c1-c1nc(C)c2nc(NCc3ccc(S(C)(=N)=O)cc3)c(=O)n([C@@H](C)C(F)(F)F)c2n1 (single isomer, unassigned) [Example 99b]
// task: argmin of HLM (% Qh) over [ P , Q ] The response must carry the label of the picked entry.
P
(P: 27 % Qh, Q: 41 % Qh)
